targetUnderTest: Neuronal acetylcholine receptor; alpha4/beta2 (Homo sapiens, UniProt P17787+P43681)
Sequence (P17787 whole entry): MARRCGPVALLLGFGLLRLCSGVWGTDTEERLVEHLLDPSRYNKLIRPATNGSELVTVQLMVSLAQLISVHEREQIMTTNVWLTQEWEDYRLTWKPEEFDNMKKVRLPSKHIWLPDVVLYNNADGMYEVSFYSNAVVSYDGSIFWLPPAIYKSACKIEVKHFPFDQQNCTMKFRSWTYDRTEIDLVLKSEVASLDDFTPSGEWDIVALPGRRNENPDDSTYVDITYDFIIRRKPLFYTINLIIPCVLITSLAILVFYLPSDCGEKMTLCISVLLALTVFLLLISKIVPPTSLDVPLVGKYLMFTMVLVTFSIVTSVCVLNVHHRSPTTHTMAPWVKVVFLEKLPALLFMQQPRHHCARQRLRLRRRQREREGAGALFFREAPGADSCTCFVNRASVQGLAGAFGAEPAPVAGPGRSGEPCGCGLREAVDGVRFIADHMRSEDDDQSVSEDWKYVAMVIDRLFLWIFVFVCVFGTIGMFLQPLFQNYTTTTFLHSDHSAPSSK
Sequence (P43681 whole entry): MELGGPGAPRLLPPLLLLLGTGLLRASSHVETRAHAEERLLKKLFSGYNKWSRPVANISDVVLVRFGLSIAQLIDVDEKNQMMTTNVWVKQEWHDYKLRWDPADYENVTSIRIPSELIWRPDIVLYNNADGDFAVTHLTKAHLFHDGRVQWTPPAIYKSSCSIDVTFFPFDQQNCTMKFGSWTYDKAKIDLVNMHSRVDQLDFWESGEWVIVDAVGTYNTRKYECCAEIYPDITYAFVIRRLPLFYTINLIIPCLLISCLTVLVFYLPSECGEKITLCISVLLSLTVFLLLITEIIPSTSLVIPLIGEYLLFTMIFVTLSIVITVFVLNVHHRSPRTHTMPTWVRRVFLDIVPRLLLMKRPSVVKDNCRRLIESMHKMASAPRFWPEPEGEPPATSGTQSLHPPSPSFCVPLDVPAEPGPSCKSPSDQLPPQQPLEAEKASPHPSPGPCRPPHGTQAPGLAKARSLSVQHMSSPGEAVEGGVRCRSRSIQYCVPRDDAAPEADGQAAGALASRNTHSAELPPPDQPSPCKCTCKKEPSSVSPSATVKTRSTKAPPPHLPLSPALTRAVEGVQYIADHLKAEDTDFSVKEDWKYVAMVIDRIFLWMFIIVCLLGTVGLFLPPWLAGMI
assayProtocol: Agonist activity at human alpha4beta2 nAChR expressed in human SH-EP1 cells assessed as induction of intracellular Ca2+ influx by FLIPR assay relative to nicotine
Assay type: cell-based
The entries below come with measured Emax values attached.

These solved cases illustrate the format of a correct answer.
smilesStr	targetUnderTest	obsValue
C(=C1/CN2CCC1CC2)/c1cccnc1	Neuronal acetylcholine receptor; alpha4/beta2 (Homo sapiens, UniProt P17787+P43681)	18%
c1ccc(C(c2ccccc2)[N+]23CCN(CC2)CC3)cc1	Neuronal acetylcholine receptor; alpha4/beta2 (Homo sapiens, UniProt P17787+P43681)	< 5%

Form field Emax, entry N#C/C(=C1\CN2CCC1CC2)c1ccccc1 : < 5%

Form field Emax, entry c1ccc(C[N+]23CCC(CC2)C(=C(c2ccccc2)c2ccccc2)C3)cc1 : < 5%

Form field Emax, entry C(CN1CCCCC1)=C(c1ccccc1)c1ccccc1 : 9%

Form field Emax, entry C(=C1/CN2CCC1CC2)/c1ccccc1 : 11%

Form field Emax, entry c1ccc(C(=C2CN3CCC2CC3)c2ccccc2)cc1 : 6%

* * *

targetUnderTest: Neuronal acetylcholine receptor; alpha4/beta2 (Homo sapiens, UniProt P17787+P43681)
assayProtocol: Agonist activity at human alpha4beta2 nAChR expressed in human SH-EP1 cells assessed as induction of electrophysiological response at 1 uM by patch clamp method relative to acetylcholine
Type: cell-based
The entries below come with measured Activity values attached.
Return type: number; implicit unit %.

These solved cases illustrate the format of a correct answer.
smilesStr	Activity / %
C(=C1/CN2CCC1CC2)/c1cccnc1	11
c1ccc(C(=C2CN3CCC2CC3)c2ccccc2)cc1	2
C(=C1/CN2CCC1CC2)/c1ccccc1	3
C(CN1CCCCC1)=C(c1ccccc1)c1ccccc1	2

Form field Activity, entry N#C/C(=C1\CN2CCC1CC2)c1ccccc1 : 2

Form field Activity, entry c1ccc(C[N+]23CCC(CC2)C(=C(c2ccccc2)c2ccccc2)C3)cc1 : 2

Form field Activity, entry c1ccc(C(c2ccccc2)[N+]23CCN(CC2)CC3)cc1 : 3

* * *

targetUnderTest: Neuronal acetylcholine receptor; alpha4/beta2 (Homo sapiens, UniProt P17787+P43681)
assayProtocol: Agonist activity at human alpha4beta2 nAChR expressed in human SH-EP1 cells assessed as induction of electrophysiological response at 10 uM by patch clamp method relative to acetylcholine
Format: cell-based
The entries below come with measured Activity values attached.
Return type: number; implicit unit %.

smilesStr	Activity (%)
C(=C1/CN2CCC1CC2)/c1ccccc1	2
c1ccc(C[N+]23CCC(CC2)C(=C(c2ccccc2)c2ccccc2)C3)cc1	1
N#C/C(=C1\CN2CCC1CC2)c1ccccc1	2

Form field Activity, entry C(=C1/CN2CCC1CC2)/c1cccnc1 : 24

Form field Activity, entry c1ccc(C(=C2CN3CCC2CC3)c2ccccc2)cc1 : 2

Form field Activity, entry C(CN1CCCCC1)=C(c1ccccc1)c1ccccc1 : 1

Form field Activity, entry c1ccc(C(c2ccccc2)[N+]23CCN(CC2)CC3)cc1 : 1

* * *

targetUnderTest: Neuronal acetylcholine receptor; alpha4/beta2 (Homo sapiens, UniProt P17787+P43681)
assayProtocol: Displacement of [3H]nicotine from human alpha4beta2 nAChR expressed in human SH-EP1 cell membranes after 2 hrs by liquid scintillation counting analysis
outcomeMeasure: Ki (nM)
Return type: number; implicit unit nM.

smilesStr	outcomeMeasure	unitTag	obsValue
C(=C1/CN2CCC1CC2)/c1ccccc1	Ki	nM	1600
c1ccc(C(=C2CN3CCC2CC3)c2ccccc2)cc1	Ki	nM	90
C(CN1CCCCC1)=C(c1ccccc1)c1ccccc1	Ki	nM	160
N#C/C(=C1\CN2CCC1CC2)c1ccccc1	Ki	nM	1100
C(=C1/CN2CCC1CC2)/c1cccnc1	Ki	nM	6

Now, please, on to the next compound.
Form field Ki, entry c1ccc(C[N+]23CCC(CC2)C(=C(c2ccccc2)c2ccccc2)C3)cc1 : 7000

* * *

targetUnderTest: Neuronal acetylcholine receptor; alpha4/beta2 (Homo sapiens, UniProt P17787+P43681)
assayProtocol: Agonist activity at human alpha4beta2 nAChR expressed in human SH-EP1 cells assessed as induction of electrophysiological response at 0.1 uM by patch clamp method relative to acetylcholine
Type: cell-based
If the reported Activity equals or exceeds 1%, assign criterion met. If not, assign criterion not met.

Some solved cases for reference:
smilesStr	classification
C(=C1/CN2CCC1CC2)/c1ccccc1	criterion met
C(CN1CCCCC1)=C(c1ccccc1)c1ccccc1	criterion not met
C(=C1/CN2CCC1CC2)/c1cccnc1	criterion met

Query: Has c1ccc(C(=C2CN3CCC2CC3)c2ccccc2)cc1 a recorded Activity greater than or equal to 1%?
Result: criterion not met

Query: Has N#C/C(=C1\CN2CCC1CC2)c1ccccc1 a recorded Activity greater than or equal to 1%?
Result: criterion met

Query: Has c1ccc(C[N+]23CCC(CC2)C(=C(c2ccccc2)c2ccccc2)C3)cc1 a recorded Activity greater than or equal to 1%?
Result: criterion met

Source: ChEMBL document CHEMBL2434918
